Target: T1, human [1-305]-mouse chimeric EL (human; mouse, UniProt Q9WVG5 306-500)
T1 sequence: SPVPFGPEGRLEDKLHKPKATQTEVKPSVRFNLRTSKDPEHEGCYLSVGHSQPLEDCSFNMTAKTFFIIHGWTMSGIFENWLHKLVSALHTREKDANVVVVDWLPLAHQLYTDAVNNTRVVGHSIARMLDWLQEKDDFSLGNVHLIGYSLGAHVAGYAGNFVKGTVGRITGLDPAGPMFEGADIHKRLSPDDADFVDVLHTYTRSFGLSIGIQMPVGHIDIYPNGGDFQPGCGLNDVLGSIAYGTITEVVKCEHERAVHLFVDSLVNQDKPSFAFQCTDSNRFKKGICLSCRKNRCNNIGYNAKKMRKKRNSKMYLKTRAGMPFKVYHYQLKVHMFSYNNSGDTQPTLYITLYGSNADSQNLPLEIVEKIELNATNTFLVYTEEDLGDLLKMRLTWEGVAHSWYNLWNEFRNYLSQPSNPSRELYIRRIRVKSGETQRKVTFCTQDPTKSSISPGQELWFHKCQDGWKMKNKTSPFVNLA
Experiment: cell-based or functional assay
attribute_measured: Neutralizing activity IC50 (nM)
Entry rule: numbers only, all in nM.

Challenge: Please give measured Neutralizing activity IC50 of the following entry: h55A1-F4 (antibody, V domains shown, humanized) VH: QVQLVQSGAEVKKPGASVKVSCKASGYTFTNYGMNWVRQAPGQGLEWMGWINTYSGVPTYAGDFKGRVTMTTDTSTSTAYMELRSLRSDDTAVYYCARRGYYGRRYFDVWGKGTTVTVSS VL: EIVLTQSPGTLSLSPGERATLSCKASQSVDYDVDSYMHWYQQKPGQAPRLLIYAASNLASGIPDRFSGSGSGTDFTLTISRLEPEDFAVYYCQQTIEDPPTFGGGTKVEIK
Response given: 2.4

New cases:
Challenge: Return Neutralizing activity IC50 for the following binder: h16B3-S7 (antibody, V domains shown, humanized) VH: EVQLVESGGGLVQPGGSLRLSCAASGFTFSAYTMSWVRQAPGKGLEWVSDISFARDRAFYPDTVKGRFTISRDNSKNTLYLQMNSLRAEDTAVYYCARLGGKNRDFWYFDLWGQGTTVTVSS VL: DIVMTQSPDSLAVSLGERATINCRASESVEYYGTSLMQWYQQKPGQPPKLLIYAASNVESGVPDRFSGSGSGTDFTLTISSLQAEDVAVYYCQQSWKVPFTFGQGTKLEIK
Response given: 1.4
